system: Muscarinic acetylcholine receptor M5 (Homo sapiens)
Sequence (P08912 whole entry): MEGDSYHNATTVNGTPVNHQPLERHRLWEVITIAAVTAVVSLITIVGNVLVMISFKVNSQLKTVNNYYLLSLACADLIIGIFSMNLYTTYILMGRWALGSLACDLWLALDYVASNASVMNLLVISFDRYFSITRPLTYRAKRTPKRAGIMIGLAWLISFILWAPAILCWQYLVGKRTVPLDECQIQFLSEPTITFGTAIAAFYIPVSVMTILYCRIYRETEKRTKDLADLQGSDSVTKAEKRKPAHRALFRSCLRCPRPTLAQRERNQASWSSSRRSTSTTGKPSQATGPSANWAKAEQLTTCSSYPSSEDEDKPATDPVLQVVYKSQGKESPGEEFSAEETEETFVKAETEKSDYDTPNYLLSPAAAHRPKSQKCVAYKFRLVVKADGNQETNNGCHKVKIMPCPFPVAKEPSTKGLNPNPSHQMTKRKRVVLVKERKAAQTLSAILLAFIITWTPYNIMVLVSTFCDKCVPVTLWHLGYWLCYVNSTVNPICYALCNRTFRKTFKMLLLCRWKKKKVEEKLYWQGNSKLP
assay remarks: Negative allosteric modulation of human muscarinic acetylcholine receptor M5 expressed in CHO cells assessed as inhibition of acetylcholine-induced calcium mobilization incubated for 150 secs prior to acetylcholine induction by Fluo-4 AM staining-based fluorescence assay
result type: IC50 (µM)
The reply should contain only the number, in µM.

>  <molecule>
Cc1ccc(C(=O)N2CCN3C(=O)c4ccccc4C23c2ccc(Cl)cc2)cc1 (stereo not given)

>  <system>
Muscarinic acetylcholine receptor M5 (Homo sapiens)

>  <IC50 [µM]>
2.6

$$$$
>  <molecule>
O=C(c1ccc(SC(F)(F)F)cc1)N1CCN2C(=O)c3ccccc3C12c1ccccc1 (stereo not given)

>  <system>
Muscarinic acetylcholine receptor M5 (Homo sapiens)

>  <IC50 [µM]>
1.38

$$$$
>  <molecule>
O=C(c1ccc(F)cc1)N1CCN2C(=O)c3ccccc3C12c1ccccc1 (stereo not given)

>  <system>
Muscarinic acetylcholine receptor M5 (Homo sapiens)

>  <IC50 [µM]>
3.49

$$$$

// sample O=C(c1cccc(C(F)(F)F)c1)N1CCN2C(=O)c3ccccc3C12c1ccc(Cl)cc1 (stereo not given) , its IC50 was 4.9
